Hey, just so you know, these numbers are from PubChem BioAssay AID2013.

Listed next: entries and their corresponding inhibition.
# TARGET_ENTITY: G-protein coupled receptor 55 (Homo sapiens) (UniProt Q9Y2T6)
# Sequence (Q9Y2T6 whole entry, looked up): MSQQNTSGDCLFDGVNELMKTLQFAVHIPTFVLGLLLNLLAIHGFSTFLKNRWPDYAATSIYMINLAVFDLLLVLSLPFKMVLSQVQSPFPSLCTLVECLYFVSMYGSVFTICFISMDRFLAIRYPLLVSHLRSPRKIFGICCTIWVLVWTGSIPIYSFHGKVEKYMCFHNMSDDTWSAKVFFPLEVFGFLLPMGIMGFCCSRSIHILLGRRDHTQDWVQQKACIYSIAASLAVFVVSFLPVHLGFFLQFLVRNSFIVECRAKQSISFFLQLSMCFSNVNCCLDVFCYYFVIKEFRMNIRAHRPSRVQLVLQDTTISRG
# EXPERIMENT_SUMMARY: GPR55 antagonists blocking LPI-driven arrestin recruitment, primary screen, imaging, U2OS, beta-arrestin-GFP, LPI agonist (AID 2013);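 also: U2OS cells stably carrying GPR55 and arrestin-GFP stimulated by 5 µM LPI near EC80; imaged beta-arrestin-GFP aggregate spots per cell after agonist stimulation; plate controls were LPI-stimulated DMSO wells for no effect and DMSO wells without LPI for full effect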
# TEST_SETTINGS: U2OS GPR55 beta-arrestin-GFP translocation imaging, LPI antagonism; at 10 µM; stronger effect = higher value
Among all 290,000 compounds or so, about 370 (0.13%) were called active. The sample as a whole holds a higher share of actives than the screen did. Entries with a potency or affinity are not part of this list.
OBSERVABLE: inhibition (%)

INSERT INTO assay_data (compound, target_entity, value_reported) VALUES
  ('NS(=O)(=O)c1ccc(NNC(=O)c2ccccc2C(=O)O)cc1', 'G-protein coupled receptor 55 (Homo sapiens) (UniProt Q9Y2T6)', 6.3),
  ('Cc1cccc(C)c1NS(=O)(=O)c1cc2c3c(c1)CC(=O)N3CCC2', 'G-protein coupled receptor 55 (Homo sapiens) (UniProt Q9Y2T6)', 6.8),
  ('Cc1ccc(NC(=O)COc2nsnc2N2CCOCC2)cc1Cl', 'G-protein coupled receptor 55 (Homo sapiens) (UniProt Q9Y2T6)', -2.9),
  ('Cn1nnc2c(N3CCCCC3)nccc21', 'G-protein coupled receptor 55 (Homo sapiens) (UniProt Q9Y2T6)', 14.8),
  ('Cc1cccc(NC(=O)C2C3C=CC4(O3)C2C(=O)N(CCCN2CCCC2)C4C(=O)NC2CCCC(C)C2C)c1 (centres undefined)', 'G-protein coupled receptor 55 (Homo sapiens) (UniProt Q9Y2T6)', -6.5),
  ('CCSc1n[nH]c2nc3c(c(=O)n12)C1(CCCC1)Cc1ccccc1-3', 'G-protein coupled receptor 55 (Homo sapiens) (UniProt Q9Y2T6)', 10.3),
  ('C=C(C)CSc1nc2ncc(Cl)cc2[nH]1', 'G-protein coupled receptor 55 (Homo sapiens) (UniProt Q9Y2T6)', 17.6),
  ('COc1ccc(C(OC(=O)c2ccco2)C(=O)NCc2ccco2)cc1 (centres undefined)', 'G-protein coupled receptor 55 (Homo sapiens) (UniProt Q9Y2T6)', 14.6),
  ('Cc1cc(=O)c(C(=O)O)nn1-c1ccccc1C(F)(F)F', 'G-protein coupled receptor 55 (Homo sapiens) (UniProt Q9Y2T6)', -0.4),
  ('COc1cc(OC)c(-c2sc(Nc3ccccc3)n[n+]2-c2ccc(F)cc2)cc1OC', 'G-protein coupled receptor 55 (Homo sapiens) (UniProt Q9Y2T6)', -3),
  ('CCS(=O)(=O)Nc1ccc(Cc2ccncc2)cc1', 'G-protein coupled receptor 55 (Homo sapiens) (UniProt Q9Y2T6)', -1.6),
  ('O=c1[nH]c(Cc2ccccc2)nc2scc(-c3ccccc3)c12', 'G-protein coupled receptor 55 (Homo sapiens) (UniProt Q9Y2T6)', -0.4),
  ('Cc1ccccc1C(=O)NC(=S)NCc1ccccc1', 'G-protein coupled receptor 55 (Homo sapiens) (UniProt Q9Y2T6)', 2.5),
  ('COCCCNC(=O)c1ccc2c3c(onc13)-c1ccccc1C2=O', 'G-protein coupled receptor 55 (Homo sapiens) (UniProt Q9Y2T6)', 84.1),
  ('CCc1ccc(CN2CCC(n3nccc3NC(=O)c3ccccc3)CC2)o1', 'G-protein coupled receptor 55 (Homo sapiens) (UniProt Q9Y2T6)', -3.9),
  ('O=C1c2ccccc2C(=O)C2OC12 (centres undefined)', 'G-protein coupled receptor 55 (Homo sapiens) (UniProt Q9Y2T6)', 12.7),
  ('COc1cc(/C=C(\C#N)C(=O)NC2CCCCC2C)ccc1OS(=O)(=O)c1ccc(C)cc1 (centres undefined)', 'G-protein coupled receptor 55 (Homo sapiens) (UniProt Q9Y2T6)', 28.8),
  ('O=C1NC(=O)N(Cc2ccccc2F)C1=O', 'G-protein coupled receptor 55 (Homo sapiens) (UniProt Q9Y2T6)', -13.9),
  ('CCOC(=O)C(C(=O)OCC)c1cc(Br)c2noc3c2c1C(=O)c1ccccc1-3', 'G-protein coupled receptor 55 (Homo sapiens) (UniProt Q9Y2T6)', -10.2),
  ('CCCSc1ccc(-c2nn(-c3ccccc3)cc2/C=C(/C#N)C(=O)NCCCOC)cc1', 'G-protein coupled receptor 55 (Homo sapiens) (UniProt Q9Y2T6)', -5.1),
  ('COC(=O)C1=CC(C(=O)c2cccs2)=NN(c2ccc(OC)cc2)C1C(=O)OC (centres undefined)', 'G-protein coupled receptor 55 (Homo sapiens) (UniProt Q9Y2T6)', 7.5),
  ('O=C(COc1cccc(C(F)(F)F)c1)N1CCN(c2ccc(O)cc2)CC1', 'G-protein coupled receptor 55 (Homo sapiens) (UniProt Q9Y2T6)', -7.2),
  ('CCn1nc([N+](=O)[O-])c2c(-c3nc4ccccc4o3)c(N)n(CCCOC)c2c1=O', 'G-protein coupled receptor 55 (Homo sapiens) (UniProt Q9Y2T6)', 98.4),
  ('C/C(=N/NC(=O)CNC(=O)c1cccnc1)c1cccc([N+](=O)[O-])c1', 'G-protein coupled receptor 55 (Homo sapiens) (UniProt Q9Y2T6)', -4.3),
  ('CCn1c(SCC(N)=O)nc2c(c1=O)C1(CCCC1)Cc1ccccc1-2', 'G-protein coupled receptor 55 (Homo sapiens) (UniProt Q9Y2T6)', 1.3),
  ('Cn1cccc1/C=N/N1CCN(Cc2ccccc2Cl)CC1', 'G-protein coupled receptor 55 (Homo sapiens) (UniProt Q9Y2T6)', -2.2),
  ('COCCn1nnnc1CN1C2CCCC1CC(NC(C)=O)C2 (centres undefined)', 'G-protein coupled receptor 55 (Homo sapiens) (UniProt Q9Y2T6)', 0.2),
  ('CC(=O)Nc1cccc(C(=O)OCC(=O)c2ccccc2Cl)c1', 'G-protein coupled receptor 55 (Homo sapiens) (UniProt Q9Y2T6)', -0.6),
  ('NCC(O)COCCC12CC3CC(CC(C3)C1)C2 (centres undefined)', 'G-protein coupled receptor 55 (Homo sapiens) (UniProt Q9Y2T6)', 5.8),
  ('COc1cc(Br)c(-c2sc(Nc3ccccc3)n[n+]2-c2ccccc2)cc1OC', 'G-protein coupled receptor 55 (Homo sapiens) (UniProt Q9Y2T6)', 40.4),
  ('COCCCNC(=O)c1ccccc1-c1cc(C)no1', 'G-protein coupled receptor 55 (Homo sapiens) (UniProt Q9Y2T6)', -3.6),
  ('O=C(Oc1ccc(N2C(=O)C3C4CCC(C4)C3C2=O)cc1)c1ccco1 (centres undefined)', 'G-protein coupled receptor 55 (Homo sapiens) (UniProt Q9Y2T6)', 15.6),
  ('COc1ccc(/C=C(\C#N)C(=O)OCC(=O)Nc2ccc(-c3nc4ccc(C)cc4s3)cc2)cc1', 'G-protein coupled receptor 55 (Homo sapiens) (UniProt Q9Y2T6)', -6.4),
  ('Cc1cc(NC(=O)C2C3C(=O)N(Cc4ccc(Cl)cc4)C(C(=O)NC4CCCCC4)C34C=CC2(C)O4)no1 (centres undefined)', 'G-protein coupled receptor 55 (Homo sapiens) (UniProt Q9Y2T6)', 9.6),
  ('NS(=O)(=O)c1ccc(Oc2ccc(S(N)(=O)=O)cc2)cc1', 'G-protein coupled receptor 55 (Homo sapiens) (UniProt Q9Y2T6)', -4.4),
  ('Cc1ccc(C(=O)Nc2ccccc2N2CCCC2)cc1', 'G-protein coupled receptor 55 (Homo sapiens) (UniProt Q9Y2T6)', -6.2),
  ('COc1cc(C2=NOC(C(=O)Nc3cc(C)on3)C2)cc(OC)c1OC (centres undefined)', 'G-protein coupled receptor 55 (Homo sapiens) (UniProt Q9Y2T6)', 0.6),
  ('CCCCCn1c(N)c(-c2nc3ccccc3o2)c2c([N+](=O)[O-])nn(CC)c(=O)c21', 'G-protein coupled receptor 55 (Homo sapiens) (UniProt Q9Y2T6)', 13.1),
  ('COc1ccc(C(CCNC(C)c2ccccc2)c2ccc(F)cc2)cc1 (centres undefined)', 'G-protein coupled receptor 55 (Homo sapiens) (UniProt Q9Y2T6)', 29.1),
  ('CCN(CC)S(=O)(=O)c1ccc(N2CCOCC2)c(NC(=O)COc2ccccc2C#N)c1', 'G-protein coupled receptor 55 (Homo sapiens) (UniProt Q9Y2T6)', -13.6),
  ('CNS(=O)(=O)c1ccc(Oc2ccc(S(=O)(=O)NC)cc2)cc1', 'G-protein coupled receptor 55 (Homo sapiens) (UniProt Q9Y2T6)', 19),
  ('COc1ccccc1NS(=O)(=O)c1cc(NC(=O)CC(C)(C)C)ccc1N1CCOCC1', 'G-protein coupled receptor 55 (Homo sapiens) (UniProt Q9Y2T6)', 6.1),
  ('COc1cc(/C=C(\C#N)C(N)=O)ccc1OS(=O)(=O)c1ccc(C)cc1', 'G-protein coupled receptor 55 (Homo sapiens) (UniProt Q9Y2T6)', 28.6),
  ('O=C(NCc1ccco1)C1(c2ccc(Br)cc2)CCCC1', 'G-protein coupled receptor 55 (Homo sapiens) (UniProt Q9Y2T6)', 1.4);
